Sourced from the supplement of paper PMC8728848

# target: Fuc(a1-2)Gal(b1-3)[Fuc(a1-4)]GlcNAc
# method-description: glycan array binding signal (z-score within array); higher = stronger binding
# measurement-setup: glycan notation: IUPAC condensed, linker removed
Many of the other results were omitted from the sample, so the strongest signals are more common in it than they were.
measured-parameter: glycan array binding signal (z-score)
Give the value as a plain number.

Q: Reported glycan array binding signal (z-score), binder SUN4 (Saccharomyces cerevisiae), P53616 (protein) MGSSHHHHHHSSGLVPRGSHNGSIYGDLADFSGPYEKFEDGTIPCGQFPSGQGVIPISWLDEGGWSGVENTDTSTGGSCKEGSYCSYACQPGMSKTQWPSDQPSDGRSIGGLLCKDGYLYRSNTDTDYLCEWGVDAAYVVSELSNDVAICRTDYPGTENMVIPTYVQAGDSLPLTVVDQDTYYTWQGLKTSAQYYVNNAGISVEDACVWGSSSSGVGNWAPLNFGAGSSDGVAYLSLIPNPNNGNALNFNVKIVAADDSSTVNGECIYENGSFSGGSDGCTVSVTAGKAKFVLYN : ____
Result: -0.752
